Test system: DU145
experiment.notes: cells
Type: cell-based
measurement.conditions: read-out: LC50; DU145
Documented CC50 across a set of compounds
readout.type: CC50 (nM)

INSERT INTO measurements (compound, readout_type, unit_abbreviation, value_modifier, endpoint_value) VALUES
  ('COc1c(C)cc2c(c1O)[C@@H]1C3[C@@H]4SC[C@]5(NC(C)Cc6c5[nH]c5ccccc65)C(=O)COC[C@@H](c5c6c(c(C)c(OC(C)=O)c54)OCO6)N3[C@@H](O)[C@H](C2)N1C (some centres unmarked) [Compound 44]', 'CC50', 'nM', '≥', 13000),
  ('COc1c(C)cc2c(c1O)[C@@H]1C3[C@@H]4SC[C@]5(NC(C)Cc6c5[nH]c5ccccc65)C(=O)COC[C@@H](c5c6c(c(C)c(OC(C)=O)c54)OCO6)N3[C@@H](O)[C@H](C2)N1C (some centres unmarked) [Compound 43]', 'CC50', 'nM', '=', 13);

Hello, the source for this data is patent US7763615B2, in case you need it.
